Test system: crude enzyme mixture from salmon intestine
Experiment: Hydrolysis with crude enzyme mixture from salmon intestine (Example 4)
Type: in vitro ADME
Conditions: after 48 hours hydrolysis
Please go through the items and note down their Diesters (%).
Give bare numbers, in %.

Below, each entry is followed by its recorded Diesters (%) result.
COMPOUND	ASSAY ENDPOINT	SCALE UNIT	RESULT
CC/C=C\C/C=C\C/C=C\C/C=C\C/C=C\C/C=C\CCC(=O)O[C@H]1CC(C)(C)C(/C=C/C(C)=C/C=C/C(C)=C/C=C/C=C(C)/C=C/C=C(C)/C=C/C2=C(C)C(=O)[C@@H](OC(=O)CC/C=C\C/C=C\C/C=C\C/C=C\C/C=C\C/C=C\CC)CC2(C)C)=C(C)C1=O	Diesters (%)	%	44
CC/C=C\C/C=C\C/C=C\C/C=C\C/C=C\CCCC(=O)O[C@H]1CC(C)(C)C(/C=C/C(C)=C/C=C/C(C)=C/C=C/C=C(C)/C=C/C=C(C)/C=C/C2=C(C)C(=O)[C@@H](OC(=O)CCC/C=C\C/C=C\C/C=C\C/C=C\C/C=C\CC)CC2(C)C)=C(C)C1=O	Diesters (%)	%	27
CCCCCCCCCCCCCCCC(=O)O[C@H]1CC(C)(C)C(/C=C/C(C)=C/C=C/C(C)=C/C=C/C=C(C)/C=C/C=C(C)/C=C/C2=C(C)C(=O)[C@@H](OC(=O)CCCCCCCCCCCCCCC)CC2(C)C)=C(C)C1=O [16:0, astaxanthin dipalmitate, reference compound]	Diesters (%)	%	81

Incoming: GET /values?readout=Diesters (%)&item= CC(=O)O [Acetate]
Outgoing: 13

---

Tested on: crude enzyme mixture from salmon intestine
Assay: Hydrolysis with crude enzyme mixture from salmon intestine (Example 4)
Assay type: in vitro ADME
Conditions: after 48 hours hydrolysis
ASSAY ENDPOINT: Monoesters (%)
Please give the number followed by its unit.

COMPOUND	TARGET DESC	ASSAY ENDPOINT	RESULT
CCCCCCCCCCCCCCCC(=O)O[C@H]1CC(C)(C)C(/C=C/C(C)=C/C=C/C(C)=C/C=C/C=C(C)/C=C/C=C(C)/C=C/C2=C(C)C(=O)[C@@H](OC(=O)CCCCCCCCCCCCCCC)CC2(C)C)=C(C)C1=O [16:0, astaxanthin dipalmitate, reference compound]	crude enzyme mixture from salmon intestine	Monoesters (%)	19%

Go through the list and state Monoesters (%) for each entry.
1. CC/C=C\C/C=C\C/C=C\C/C=C\C/C=C\C/C=C\CCC(=O)O[C@H]1CC(C)(C)C(/C=C/C(C)=C/C=C/C(C)=C/C=C/C=C(C)/C=C/C=C(C)/C=C/C2=C(C)C(=O)[C@@H](OC(=O)CC/C=C\C/C=C\C/C=C\C/C=C\C/C=C\C/C=C\CC)CC2(C)C)=C(C)C1=O
2. CC/C=C\C/C=C\C/C=C\C/C=C\C/C=C\CCCC(=O)O[C@H]1CC(C)(C)C(/C=C/C(C)=C/C=C/C(C)=C/C=C/C=C(C)/C=C/C=C(C)/C=C/C2=C(C)C(=O)[C@@H](OC(=O)CCC/C=C\C/C=C\C/C=C\C/C=C\C/C=C\CC)CC2(C)C)=C(C)C1=O
3. CC(=O)O [Acetate]

Outgoing:
["53%", "67%", "80%"]

---

Please go through the items and note down their Monoesters (%).
Test system: crude enzyme mixture from rainbow trout intestine
Test: Hydrolysis with crude enzyme mixture from rainbow trout intestine (Example 5)
Format: in vitro ADME, rainbow trout (Oncorhynchus mykiss)
Settings: after 48 hours hydrolysis
One number for each entry, in %.

COMPOUND	TARGET DESC	Monoesters (%)
CC(=O)O [Acetate]	crude enzyme mixture from rainbow trout intestine	83
CC/C=C\C/C=C\C/C=C\C/C=C\C/C=C\C/C=C\CCC(=O)O[C@H]1CC(C)(C)C(/C=C/C(C)=C/C=C/C(C)=C/C=C/C=C(C)/C=C/C=C(C)/C=C/C2=C(C)C(=O)[C@@H](OC(=O)CC/C=C\C/C=C\C/C=C\C/C=C\C/C=C\C/C=C\CC)CC2(C)C)=C(C)C1=O	crude enzyme mixture from rainbow trout intestine	55
CCCCCCCCCCCCCCCC(=O)O[C@H]1CC(C)(C)C(/C=C/C(C)=C/C=C/C(C)=C/C=C/C=C(C)/C=C/C=C(C)/C=C/C2=C(C)C(=O)[C@@H](OC(=O)CCCCCCCCCCCCCCC)CC2(C)C)=C(C)C1=O [16:0, astaxanthin dipalmitate, reference compound]	crude enzyme mixture from rainbow trout intestine	18

With those in mind, consider the next compound.
Incoming: GET /values?readout=Monoesters (%)&item= CC/C=C\C/C=C\C/C=C\C/C=C\C/C=C\CCCC(=O)O[C@H]1CC(C)(C)C(/C=C/C(C)=C/C=C/C(C)=C/C=C/C=C(C)/C=C/C=C(C)/C=C/C2=C(C)C(=O)[C@@H](OC(=O)CCC/C=C\C/C=C\C/C=C\C/C=C\C/C=C\CC)CC2(C)C)=C(C)C1=O
Outgoing: 58

---

Test system: crude enzyme mixture from salmon intestine
Assay: Hydrolysis with crude enzyme mixture from salmon intestine (Example 4)
Format: in vitro ADME
Conditions: after 48 hours hydrolysis, diol = free astaxanthin
Please go through the items and note down their Diol (%).
Numbers only, in %.

Below, each entry is followed by its recorded Diol (%) result.
MOLECULE	ASSAY ENDPOINT	RESULT
CC(=O)O [Acetate]	Diol (%)	7
CC/C=C\C/C=C\C/C=C\C/C=C\C/C=C\CCCC(=O)O[C@H]1CC(C)(C)C(/C=C/C(C)=C/C=C/C(C)=C/C=C/C=C(C)/C=C/C=C(C)/C=C/C2=C(C)C(=O)[C@@H](OC(=O)CCC/C=C\C/C=C\C/C=C\C/C=C\C/C=C\CC)CC2(C)C)=C(C)C1=O [EPA]	Diol (%)	6
CC/C=C\C/C=C\C/C=C\C/C=C\C/C=C\C/C=C\CCC(=O)O[C@H]1CC(C)(C)C(/C=C/C(C)=C/C=C/C(C)=C/C=C/C=C(C)/C=C/C=C(C)/C=C/C2=C(C)C(=O)[C@@H](OC(=O)CC/C=C\C/C=C\C/C=C\C/C=C\C/C=C\C/C=C\CC)CC2(C)C)=C(C)C1=O [DHA]	Diol (%)	3

Incoming: GET /values?readout=Diol (%)&item= CCCCCCCCCCCCCCCC(=O)O[C@H]1CC(C)(C)C(/C=C/C(C)=C/C=C/C(C)=C/C=C/C=C(C)/C=C/C=C(C)/C=C/C2=C(C)C(=O)[C@@H](OC(=O)CCCCCCCCCCCCCCC)CC2(C)C)=C(C)C1=O [16:0, astaxanthin dipalmitate, reference compound]
Outgoing: 0

---

Tested on: crude enzyme mixture from rainbow trout intestine
Assay: Hydrolysis with crude enzyme mixture from rainbow trout intestine (Example 5)
Assay type: in vitro ADME, rainbow trout (Oncorhynchus mykiss)
Details: after 48 hours hydrolysis, diol = free astaxanthin
ASSAY ENDPOINT: Diol (%)
Numbers only, in %.

MOLECULE	TARGET DESC	Diol (%)
CC/C=C\C/C=C\C/C=C\C/C=C\C/C=C\CCCC(=O)O[C@H]1CC(C)(C)C(/C=C/C(C)=C/C=C/C(C)=C/C=C/C=C(C)/C=C/C=C(C)/C=C/C2=C(C)C(=O)[C@@H](OC(=O)CCC/C=C\C/C=C\C/C=C\C/C=C\C/C=C\CC)CC2(C)C)=C(C)C1=O	crude enzyme mixture from rainbow trout intestine	25

Go through the list and state Diol (%) for each entry.
1. CC/C=C\C/C=C\C/C=C\C/C=C\C/C=C\C/C=C\CCC(=O)O[C@H]1CC(C)(C)C(/C=C/C(C)=C/C=C/C(C)=C/C=C/C=C(C)/C=C/C=C(C)/C=C/C2=C(C)C(=O)[C@@H](OC(=O)CC/C=C\C/C=C\C/C=C\C/C=C\C/C=C\C/C=C\CC)CC2(C)C)=C(C)C1=O
2. CC(=O)O [Acetate]
3. CCCCCCCCCCCCCCCC(=O)O[C@H]1CC(C)(C)C(/C=C/C(C)=C/C=C/C(C)=C/C=C/C=C(C)/C=C/C=C(C)/C=C/C2=C(C)C(=O)[C@@H](OC(=O)CCCCCCCCCCCCCCC)CC2(C)C)=C(C)C1=O [16:0, astaxanthin dipalmitate, reference compound]

Outgoing:
24
14
11

---

Test system: crude enzyme mixture from rainbow trout intestine
Assay: Hydrolysis with crude enzyme mixture from rainbow trout intestine (Example 5)
Format: in vitro ADME, rainbow trout (Oncorhynchus mykiss)
Settings: after 48 hours hydrolysis
ASSAY ENDPOINT: Diesters (%)
Give bare numbers, in %.

COMPOUND	RESULT
CC/C=C\C/C=C\C/C=C\C/C=C\C/C=C\C/C=C\CCC(=O)O[C@H]1CC(C)(C)C(/C=C/C(C)=C/C=C/C(C)=C/C=C/C=C(C)/C=C/C=C(C)/C=C/C2=C(C)C(=O)[C@@H](OC(=O)CC/C=C\C/C=C\C/C=C\C/C=C\C/C=C\C/C=C\CC)CC2(C)C)=C(C)C1=O [DHA]	21
CCCCCCCCCCCCCCCC(=O)O[C@H]1CC(C)(C)C(/C=C/C(C)=C/C=C/C(C)=C/C=C/C=C(C)/C=C/C=C(C)/C=C/C2=C(C)C(=O)[C@@H](OC(=O)CCCCCCCCCCCCCCC)CC2(C)C)=C(C)C1=O [16:0, astaxanthin dipalmitate, reference compound]	71
CC/C=C\C/C=C\C/C=C\C/C=C\C/C=C\CCCC(=O)O[C@H]1CC(C)(C)C(/C=C/C(C)=C/C=C/C(C)=C/C=C/C=C(C)/C=C/C=C(C)/C=C/C2=C(C)C(=O)[C@@H](OC(=O)CCC/C=C\C/C=C\C/C=C\C/C=C\C/C=C\CC)CC2(C)C)=C(C)C1=O [EPA]	17

Incoming: GET /values?readout=Diesters (%)&item= CC(=O)O [Acetate]
Outgoing: 3

meta.source: patent US6709688B1
